Origin of the recorded values: PubChem BioAssay (NCI)

System: OVCAR-5 ovarian
Assay: NCI-60 one-dose screen, 48 h (100 = growth as untreated, 0 = no growth, -100 = all killed)
Conditions: 10 µM unless noted
This is part of a sample that, as a whole, favours compounds with a hit. Of some 83,000 tested, about 20% had one in any assay. Calls of active or inactive are those of the source. Rule for the calls: active = growth percent below 10; inactive = the rest.
Listing of recorded growth by entry.

Use the examples below as a reference point.
Input: Name the recorded growth of the item Cn1cc2c(c1)-c1nc(Nc3ccccc3)ncc1CC2 in your answer.
Output: 60% (inactive)

Input: Name the recorded growth of the item CCN1CCN(c2nc(C)cc(NCc3cc(Nc4ccnc5cc(Cl)ccc45)ccc3F)n2)CC1 in your answer.
Output: 17.8% (inactive)

Input: Name the recorded growth of the item CCN(CC)S(=O)(=O)c1cccc(-c2ccc3c(NC(=O)C4CC4)n[nH]c3c2)c1 in your answer.
Output: 51.6% [6.25 µM] (inactive)

Others:
Input: Name the recorded growth of the item Fc1ccc(CNc2c3ccccc3nc3ccccc23)cc1F in your answer.
Output: 44.6% (inactive)

* * *

Listing of recorded growth by entry.
System: DU-145 prostate
Assay: NCI-60 one-dose screen, 48 h (100 = growth as untreated, 0 = no growth, -100 = all killed)
Conditions: 10 µM unless noted
About 83,000 compounds went through this panel and 20% of them were active in at least one assay; those are over-represented in the sample as a whole.
State just the number; it will be interpreted in %.

Input: Name the recorded growth of the item O=[N+]([O-])c1ccc(-c2cc(-c3ccc(Nc4nc(Nc5ccc(Cl)cc5)nc(Nc5ccc(Cl)cc5)n4)cc3)no2)cc1 in your answer.
Output: 87.7

Input: Name the recorded growth of the item c1coc(-c2c3ccc(=[N+]4CCCCC4)cc-3oc3cc(N4CCCCC4)ccc23)c1 in your answer.
Output: -96.2

Input: Name the recorded growth of the item COC(=O)[C@]12CC[C@@H](C)[C@H](C)[C@@H]1C1=CC[C@@H]3[C@@]4(C)C(C=O)=C[C@@](C)(COC(=O)c5ccco5)C4=CC[C@@]3(C)[C@]1(C)CC2 in your answer.
Output: 10.7

Input: Name the recorded growth of the item N=c1sc(Cc2ccc(Cl)cc2)cn1CC(=O)c1ccc(F)cc1 in your answer.
Output: 78.3

* * *

Tested on: SK-MEL-5 melanoma
Assay: NCI-60 one-dose screen, 48 h
Settings: 10 µM unless noted
This is part of a sample that, as a whole, favours compounds with a hit. Of some 83,000 tested, about 20% had one in any assay. Active and inactive are the calls of the source. The calls were made as follows: active = growth percent below 10; inactive = the rest.
Select the matching outcome among TRUE for active, FALSE for inactive

Record excerpt, results attached:
Input: Each molecule tested received a call. Report the one for COc1c(CCC[P+](c2ccccc2)(c2ccccc2)c2ccccc2)cc2c(c1OC)OCO2 .
Output: TRUE

Input: Each molecule tested received a call. Report the one for Cc1nn(-c2ccccc2)c(Oc2ccc(Cl)cc2)c1/C=N\N=c1/sc2ccccc2n1C .
Output: FALSE

Input: Each molecule tested received a call. Report the one for C=C(C)[C@@H]1CC[C@]2(C(=O)NC3CCCCC3)CC[C@]3(C)[C@H](CC[C@@H]4[C@@]5(C)CCC(=O)C(C)(C)[C@@H]5CC[C@]43C)[C@@H]12 .
Output: FALSE

Input: Each molecule tested received a call. Report the one for COc1ccc2occ(C3=C(c4c[nH]c5ccccc45)C(=O)N(O)C3=O)c2c1 .
Output: FALSE

Input: Each molecule tested received a call. Report the one for Cc1ccc2c(c1)Sc1c(ccc3ccccc13)N2 .
Output: FALSE

Input: Each molecule tested received a call. Report the one for COc1cccc(-c2nc3sccn3c2-c2ccnc(NCCNS(=O)(=O)c3cccc(F)c3)c2)c1 .
Output: TRUE

Others:
Input: Each molecule tested received a call. Report the one for O=C(NCCCNc1cc(-c2cn(-c3ccccc3)nc2-c2cccc(O)c2)ccn1)c1ccc(F)cc1 .
Output: TRUE

Input: Each molecule tested received a call. Report the one for Clc1cc(Cl)cc(Nc2ccc3cc(OCCCN4CCOCC4)ccc3n2)c1 .
Output: FALSE

Input: Each molecule tested received a call. Report the one for O=C(CSc1nnc(-c2ccc(NC(=O)c3cccnc3)cc2)o1)Nc1cccc(Br)c1 .
Output: FALSE

Input: Each molecule tested received a call. Report the one for Fc1cnc(NC2CC2)nc1-c1cnc2ccc(N3CCOCC3)cn12 .
Output: TRUE

Input: Each molecule tested received a call. Report the one for CC(C)(C)n1cc(-c2ccnc(NCCCNS(=O)(=O)c3ccccc3)c2)c(-c2ccccc2)n1 .
Output: FALSE

* * *

Listing of recorded growth by entry.
Test system: K-562 leukemia
Assay: NCI-60 one-dose screen, 48 h (100 = growth as untreated, 0 = no growth, -100 = all killed)
Conditions: 10 µM unless noted
Compounds without any hit were thinned out: in the full panel of roughly 83,000, 20% have a hit.
State just the number; it will be interpreted in %.

Use the examples below as a reference point.
Input: Name the recorded growth of the item CC(C)CCC[C@@H](C)[C@H]1CC[C@H]2[C@@H](Nc3ccc(O)cc3)CCC[C@]12C in your answer.
Output: 105

Input: Name the recorded growth of the item COc1ccc(NC(=O)c2nc(-c3cc(OC)c(OC)c(OC)c3)n(-c3cccc4ccccc34)n2)cc1OC in your answer.
Output: 35.4

Input: Name the recorded growth of the item CCCCCCCCCCCC(c1ccccc1)[N+](C)(C)C (stereo unspecified) in your answer.
Output: 19

Input: Name the recorded growth of the item CC(C)(C)n1cc(-c2ccnc(NCCCNS(=O)(=O)c3ccccc3)c2)c(-c2ccccc2)n1 in your answer.
Output: 21.2

Input: Name the recorded growth of the item NS(=O)(=O)c1cnccc1Oc1cccc2cccnc12 in your answer.
Output: 82.4

Others:
Input: Name the recorded growth of the item O=c1ccn2nc3ccccc3c2[nH]1 in your answer.
Output: 98.5

Input: Name the recorded growth of the item O=[N+]([O-])c1ccc(C2CC(c3ccccc3)=Nc3ccccc3S2)cc1 (stereo unspecified) in your answer.
Output: 32.4

Input: Name the recorded growth of the item O=C(O)c1ccc2c(c1Cl)C(=O)c1ccccc1C2=O in your answer.
Output: 73.7

Input: Name the recorded growth of the item NC1=NCc2nc3ccccc3c(=O)n2C1 in your answer.
Output: 87.3

Input: Name the recorded growth of the item O=C(Nc1ccc(Nc2ccncc2)cc1)c1ccc(C(=O)Nc2ccc(Nc3ccncc3)cc2)cc1 in your answer.
Output: 53.5

Input: Name the recorded growth of the item COc1ccc(S(=O)(=O)NCCNc2nccc(-c3c(-c4cccc(F)c4)nc4sccn34)n2)cc1 in your answer.
Output: 23

* * *

Test system: NCI-H522 lung
Experiment: NCI-60 one-dose screen, 48 h (100 = growth as untreated, 0 = no growth, -100 = all killed)
Details: 10 µM unless noted
The panel holds about 83,000 compounds, 20% with a hit somewhere; the sample as a whole holds those more often.
Classify by measured growth: Y if it is equal to or exceeds 40%, N if it is smaller.

Record excerpt, results attached:
Input: Answer whether growth of Cc1ccc2nc(NC(=O)CSc3nc(Nc4ccc([N+](=O)[O-])cc4)c(C#N)c(-c4ccccc4)n3)sc2c1 is greater than or equal to 40%.
Output: Y

Input: Answer whether growth of Cc1occc1-c1n[nH]c(=S)n1N1C(=O)CSC1=S is greater than or equal to 40%.
Output: Y

Input: Answer whether growth of O=C(/C=C/c1ccco1)c1ccc(Nc2nc(Nc3ccc(F)cc3)nc(Nc3ccc(Cl)cc3)n2)cc1 is greater than or equal to 40%.
Output: Y

Input: Answer whether growth of N#C/C(=C/C=C/c1cccc(Cl)c1)S(=O)c1ccccc1 (stereo not given) is greater than or equal to 40%.
Output: N

Input: Answer whether growth of COc1cccc(-c2nn(-c3ccccc3)cc2-c2ccnc(NCCNC(=O)Nc3ccccc3)c2)c1 is greater than or equal to 40%.
Output: Y

Others:
Input: Answer whether growth of O=C1CC(N2C(=O)/C(=C/C(Cl)=C\c3ccc([N+](=O)[O-])cc3)SC2=S)C(=O)N1c1ccc(O)cc1 (stereo not given) is greater than or equal to 40%.
Output: N

Input: Answer whether growth of O=Cc1c[nH]c2ccc(-c3csc4ccccc34)cc12 is greater than or equal to 40%.
Output: Y

Input: Answer whether growth of Cc1cccc(NC(=O)N/C(N)=N/c2nc(C)c(C)s2)c1 is greater than or equal to 40%.
Output: N

Input: Answer whether growth of C=CCOC1=CC(=O)c2ccccc2C1=O is greater than or equal to 40%.
Output: Y

Input: Answer whether growth of CCOC(=O)c1c2ncccc2n2c(=O)n(-c3ccccc3C)nnc12 is greater than or equal to 40%.
Output: Y

Input: Answer whether growth of COc1cc(OC)cc(C2CC(=O)Nc3c2c(C)nn3-c2nc3ccccc3[nH]2)c1 (stereo not given) is greater than or equal to 40%.
Output: N

Input: Answer whether growth of Cc1ccc(S(=O)(=O)NCC[C@@H]2C[C@H]2c2cc3ccccc3s2)cc1 is greater than or equal to 40%.
Output: Y

Input: Answer whether growth of C=CC(=O)Nc1cccc(Oc2nccc(Nc3nnc(C4CC4)s3)n2)c1 is greater than or equal to 40%.
Output: Y

Input: Answer whether growth of CC(C)C(NC(=O)C1(NC(=O)OCc2ccccc2)CCCC1)C(=O)O (stereo not given) is greater than or equal to 40%.
Output: Y
